- STUDY SYSTEM: WIZ (Homo sapiens, UniProt O95785+Q96SW2)
- Construct: expressed in transfected cells
- Sequence (O95785 whole entry): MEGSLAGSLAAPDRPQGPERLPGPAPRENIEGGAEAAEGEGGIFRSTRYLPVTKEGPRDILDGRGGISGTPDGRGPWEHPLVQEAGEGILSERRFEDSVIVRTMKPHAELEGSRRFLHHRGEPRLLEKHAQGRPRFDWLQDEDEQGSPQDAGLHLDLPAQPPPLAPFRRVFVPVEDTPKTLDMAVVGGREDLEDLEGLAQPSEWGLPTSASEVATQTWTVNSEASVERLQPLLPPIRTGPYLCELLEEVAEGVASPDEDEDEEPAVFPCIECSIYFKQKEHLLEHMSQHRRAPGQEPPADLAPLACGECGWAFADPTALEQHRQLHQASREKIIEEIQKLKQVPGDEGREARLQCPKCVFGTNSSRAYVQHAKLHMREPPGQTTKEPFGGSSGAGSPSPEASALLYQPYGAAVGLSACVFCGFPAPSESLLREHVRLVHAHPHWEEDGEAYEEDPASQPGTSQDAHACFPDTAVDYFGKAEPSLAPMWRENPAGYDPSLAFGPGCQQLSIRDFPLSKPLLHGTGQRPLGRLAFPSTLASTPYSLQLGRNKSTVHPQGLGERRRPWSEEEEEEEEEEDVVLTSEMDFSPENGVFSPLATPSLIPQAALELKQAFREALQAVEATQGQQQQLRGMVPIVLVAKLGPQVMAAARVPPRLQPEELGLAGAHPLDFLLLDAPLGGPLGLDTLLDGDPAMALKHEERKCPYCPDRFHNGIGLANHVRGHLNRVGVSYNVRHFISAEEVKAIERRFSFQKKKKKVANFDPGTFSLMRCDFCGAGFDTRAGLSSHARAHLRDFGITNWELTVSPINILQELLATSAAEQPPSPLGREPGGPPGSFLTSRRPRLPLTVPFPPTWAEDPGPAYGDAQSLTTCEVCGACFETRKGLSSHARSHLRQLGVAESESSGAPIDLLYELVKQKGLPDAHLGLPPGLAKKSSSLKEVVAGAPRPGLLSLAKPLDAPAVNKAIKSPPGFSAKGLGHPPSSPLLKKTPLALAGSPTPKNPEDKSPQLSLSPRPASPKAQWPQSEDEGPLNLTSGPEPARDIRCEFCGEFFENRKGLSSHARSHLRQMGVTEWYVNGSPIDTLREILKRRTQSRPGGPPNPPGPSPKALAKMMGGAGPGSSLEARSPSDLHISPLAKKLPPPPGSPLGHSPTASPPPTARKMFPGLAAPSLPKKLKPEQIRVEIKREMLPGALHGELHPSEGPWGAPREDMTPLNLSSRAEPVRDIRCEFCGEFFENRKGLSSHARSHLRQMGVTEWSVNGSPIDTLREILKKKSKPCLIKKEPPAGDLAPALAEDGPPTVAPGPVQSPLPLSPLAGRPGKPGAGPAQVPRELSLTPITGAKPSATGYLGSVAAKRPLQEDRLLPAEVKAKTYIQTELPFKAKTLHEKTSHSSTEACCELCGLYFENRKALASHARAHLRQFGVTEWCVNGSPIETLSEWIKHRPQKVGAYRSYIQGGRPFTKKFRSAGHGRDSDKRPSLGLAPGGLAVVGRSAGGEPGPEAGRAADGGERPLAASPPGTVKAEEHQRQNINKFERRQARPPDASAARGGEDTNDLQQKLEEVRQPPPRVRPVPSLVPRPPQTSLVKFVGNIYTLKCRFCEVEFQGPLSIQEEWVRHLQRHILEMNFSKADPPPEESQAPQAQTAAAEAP
- Sequence (Q96SW2 whole entry): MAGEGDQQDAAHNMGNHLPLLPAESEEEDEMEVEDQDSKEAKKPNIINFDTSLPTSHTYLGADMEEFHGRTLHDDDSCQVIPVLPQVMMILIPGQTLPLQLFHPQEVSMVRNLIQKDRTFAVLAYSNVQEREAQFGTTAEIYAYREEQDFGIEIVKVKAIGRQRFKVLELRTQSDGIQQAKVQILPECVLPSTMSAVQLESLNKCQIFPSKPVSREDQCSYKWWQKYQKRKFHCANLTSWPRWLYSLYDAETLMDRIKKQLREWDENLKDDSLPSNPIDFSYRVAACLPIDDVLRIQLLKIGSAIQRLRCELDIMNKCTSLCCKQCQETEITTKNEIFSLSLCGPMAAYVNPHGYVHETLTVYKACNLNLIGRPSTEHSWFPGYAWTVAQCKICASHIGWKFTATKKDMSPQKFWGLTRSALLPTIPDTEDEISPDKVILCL
- Sequence (Q16531 whole entry partner): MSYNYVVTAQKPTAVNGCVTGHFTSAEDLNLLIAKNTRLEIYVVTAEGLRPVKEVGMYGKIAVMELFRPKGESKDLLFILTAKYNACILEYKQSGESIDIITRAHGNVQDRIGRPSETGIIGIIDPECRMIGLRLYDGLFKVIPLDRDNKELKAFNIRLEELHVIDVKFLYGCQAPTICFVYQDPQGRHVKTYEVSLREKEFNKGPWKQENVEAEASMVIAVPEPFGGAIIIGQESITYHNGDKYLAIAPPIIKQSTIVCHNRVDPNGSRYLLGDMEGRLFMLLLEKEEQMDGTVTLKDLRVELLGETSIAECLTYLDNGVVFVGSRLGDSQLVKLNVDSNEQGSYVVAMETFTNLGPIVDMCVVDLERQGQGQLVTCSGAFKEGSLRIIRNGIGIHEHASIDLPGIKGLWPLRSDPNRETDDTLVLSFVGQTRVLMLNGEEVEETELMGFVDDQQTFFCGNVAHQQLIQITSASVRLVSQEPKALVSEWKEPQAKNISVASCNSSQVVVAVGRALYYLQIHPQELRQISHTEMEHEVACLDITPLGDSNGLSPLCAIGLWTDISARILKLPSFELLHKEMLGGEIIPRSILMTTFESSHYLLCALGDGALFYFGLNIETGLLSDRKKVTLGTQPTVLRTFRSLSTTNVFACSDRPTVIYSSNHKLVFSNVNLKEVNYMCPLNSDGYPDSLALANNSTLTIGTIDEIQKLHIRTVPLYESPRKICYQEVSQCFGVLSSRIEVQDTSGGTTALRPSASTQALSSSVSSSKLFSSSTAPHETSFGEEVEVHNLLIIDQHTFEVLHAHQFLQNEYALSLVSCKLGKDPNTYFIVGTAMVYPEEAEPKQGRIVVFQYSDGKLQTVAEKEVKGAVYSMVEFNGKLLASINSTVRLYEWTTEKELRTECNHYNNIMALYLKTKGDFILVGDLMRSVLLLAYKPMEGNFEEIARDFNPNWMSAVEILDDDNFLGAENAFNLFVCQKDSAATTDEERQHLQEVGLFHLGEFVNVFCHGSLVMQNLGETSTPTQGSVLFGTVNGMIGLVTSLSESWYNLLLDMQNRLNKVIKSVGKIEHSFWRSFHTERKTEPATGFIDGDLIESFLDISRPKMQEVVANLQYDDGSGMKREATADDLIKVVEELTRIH
- PROTOCOL NOTES: Quantification of WIZ protein levels in HiBit tag fusion protein assay (WIZ HiBit assay in 293T cells)
- Type: cell-based
- ASSAY SETUP: HEK-293T, DMSO-normalized, curve-fitted percentage of WIZ-HiBit remaining at 25 uM; read-out: WIZ Amax
# remaining activity at 25 µM listing for each entry below
Could you give me the number in %? Just the number is fine.

Check out these entries, answers already filled in.
• CC(C)CN1CCC(Cc2ccc3onc(N4CCC(=O)NC4=O)c3c2)CC1 = 9
• CN1CCC(Cc2ccc3onc(N4CCC(=O)NC4=O)c3c2)CC1 = 10
• CC[C@@H]1CN(C)CCN1Cc1ccc2onc(N3CCC(=O)NC3=O)c2c1 = 17
• O=C1CCN(c2noc3ccc(CN4CCN(Cc5cccnc5)CC4)cc23)C(=O)N1 = 14

I am curious: what remaining activity at 25 µM value has been reported for O=C1CCN(c2noc3ccc(CC4CCN(Cc5cccc(F)c5)CC4)cc23)C(=O)N1 ?
9

* * *

- Test system: Fetal Hemoglobin (HbF)
- PROTOCOL NOTES: Small molecule HbF induction assay (erythroid differentiated mPB CD34+ cells, flow cytometry)
- Type: cell-based, human
- ASSAY SETUP: Homo sapiens; mPB CD34+ cells expanded 6 days, erythroid differentiated with compound 7 days; 7-point, 1:3 dilution from 30 uM
MEASURED ATTRIBUTE: pEC50
Recall that pEC50 is obtained by taking minus log10 of the concentration measured in molar.

Given the entry C[C@H]1CN(Cc2ccc3onc(N4CCC(=O)NC4=O)c3c2)CCN1C , report its measured pEC50.
7.35

If you can, please state the reported pEC50 value of C[C@@H]1CN(C)CCN1Cc1ccc2onc(N3CCC(=O)NC3=O)c2c1 .
6.76

* * *

# Lookup of reported % degradation of WIZ (100-Amax) keyed by entry
- STUDY SYSTEM: WIZ (Homo sapiens, UniProt O95785+Q96SW2)
- Construct: expressed in transfected cells
- PROTOCOL NOTES: Quantification of WIZ protein levels in HiBit tag fusion protein assay (WIZ HiBit assay in 293T cells)
- Assay type: cell-based
- ASSAY SETUP: 100 minus Amax at 25 uM
Give the number first and the unit second.

Some molecules with recorded % degradation of WIZ (100-Amax):
- O=C1CCN(c2noc3ccc(CN4CC5CCC4CN5CC4CCOCC4)cc23)C(=O)N1 (single isomer, unassigned): 91%
- CC(C)(C)OC(=O)N1[C@@H]2CC[C@H]1CC(Cc1ccc3onc(N4CCC(=O)NC4=O)c3c1)C2 (single isomer, unassigned) [Example 54]: 92%
- CC(C)(C)OC(=O)N1[C@@H]2CC[C@H]1CC(Cc1ccc3onc(N4CCC(=O)NC4=O)c3c1)C2 (single isomer, unassigned) [Example 55]: 70%
- CN1CC2CCC1CN2Cc1ccc2onc(N3CCC(=O)NC3=O)c2c1 (single isomer, unassigned): 85%
- O=C1CCN(c2noc3ccc(CC4C[C@H]5CC[C@@H](C4)N5)cc23)C(=O)N1 (stereo partly drawn) [Example 56]: 45%
- CN1[C@@H]2CC[C@H]1CC(Cc1ccc3onc(N4CCC(=O)NC4=O)c3c1)C2 (stereo partly drawn): 84%
- O=C1CCN(c2noc3ccc(CC4C[C@H]5CC[C@@H](C4)N5)cc23)C(=O)N1 (stereo partly drawn) [Example 57]: 80%
- CS(=O)(=O)N1[C@@H]2CC[C@H]1CC(Cc1ccc3onc(N4CCC(=O)NC4=O)c3c1)C2 (stereo partly drawn): 85%

# input for lookup
Could you share which % degradation of WIZ (100-Amax) value was measured for CS(=O)(=O)N1CC2CCC1CN2Cc1ccc2onc(N3CCC(=O)NC3=O)c2c1 (single isomer, unassigned) ?
83%

* * *

- STUDY SYSTEM: WIZ (Homo sapiens, UniProt O95785+Q96SW2)
- Construct: expressed in transfected cells
- PROTOCOL NOTES: Quantification of WIZ protein levels in HiBit tag fusion protein assay (WIZ HiBit assay in 293T cells)
- Format: cell-based
- ASSAY SETUP: HEK-293T, 100 minus Amax at 25 uM; read-out: % degradation of WIZ (100-Amax)
MEASURED ATTRIBUTE: Dmax at 25 µM (%)
Record the value in %, omitting the unit from your answer.

# example entries with known answers
• C[C@@H]1CN(C2CCOCC2)CCN1Cc1ccc2onc(N3CCC(=O)NC3=O)c2c1 [Example 78] = 80
• CC(C)(C)OC(=O)N1CCC(Cc2ccc3onc(N4CCC(=O)NC4=O)c3c2)CC1 [Example 1a] = 85
• CN1C[C@@H]2C[C@H]1CN2Cc1ccc2onc(N3CCC(=O)NC3=O)c2c1 [Example 94] = 76
• CC(C)N1CCN(Cc2ccc3onc(N4CCC(=O)NC4=O)c3c2)[C@H](C)C1 [Example 69] = 83
• C[C@@H]1CN(C2CC2)CCN1Cc1ccc2onc(N3CCC(=O)NC3=O)c2c1 [Example 120] = 83
• O=C1CCN(c2noc3ccc(CC4CCN(CC5CC5)CC4)cc23)C(=O)N1 [Example 6] = 91
• Cc1c(CN2CCN(C)[C@@H](C)C2)ccc2onc(N3CCC(=O)NC3=O)c12 [Example 129] = 86
• CC(C)(C)OC(=O)N1[C@@H]2CC[C@H]1CN(Cc1ccc3onc(N4CCC(=O)NC4=O)c3c1)C2 [Example 99] = 74
• CCN1CCN(Cc2ccc3onc(N4CCC(=O)NC4=O)c3c2)[C@H](C)C1 [Example 66] = 86
• CC(=O)N1CCN(Cc2ccc3onc(N4CCC(=O)NC4=O)c3c2)[C@H](C)C1 [Example 64] = 75

Given the entry Cc1c(CN2CCN(CC(C)C)[C@@H](C)C2)ccc2onc(N3CCC(=O)NC3=O)c12 [Example 128] , report its measured Dmax at 25 µM.
88

I'd like to know its Dmax at 25 µM. The compound in question is CC(C)(C)OC(=O)N1C[C@H]2C[C@@H]1CN2Cc1ccc2onc(N3CCC(=O)NC3=O)c2c1 [Example 96]
66

Would you mind telling me what Dmax at 25 µM value was observed for C[C@H]1CN(S(C)(=O)=O)[C@@H](C)CN1Cc1ccc2onc(N3CCC(=O)NC3=O)c2c1 [Example 105] ?
75

Field request: Dmax at 25 µM | item: CN1CCN(Cc2ccc3onc(N4CCC(=O)NC4=O)c3c2)CC1 [Example 22]
91

I am curious: what Dmax at 25 µM value has been reported for COC[C@H]1CN(Cc2ccc3onc(N4CCC(=O)NC4=O)c3c2)CCN1CC(C)C [Example 114] ?
85

# get_value(readout='Dmax at 25 µM', item= CC(C)CN1CCN(Cc2ccc3onc(N4CCC(=O)NC4=O)c3c2)[C@@H](C)C1 [Example 32] )
91

For O=C1CCN(c2noc3ccc(CN4CCN(Cc5ccccc5)CC4)cc23)C(=O)N1 [Example 25] , what is its reported Dmax at 25 µM?
87

* * *

- STUDY SYSTEM: WIZ (Homo sapiens, UniProt O95785+Q96SW2)
- Construct: expressed in transfected cells
- PROTOCOL NOTES: Quantification of WIZ protein levels in HiBit tag fusion protein assay (WIZ HiBit assay in 293T cells)
- Assay type: cell-based
- ASSAY SETUP: HEK-293T, 100 minus Amax at 25 uM; read-out: % degradation of WIZ (100-Amax)
Entries and their Dmax at 25 µM
Please respond with the number in % and leave the unit unwritten.

Worked cases, Dmax at 25 µM given:
- CC(C)S(=O)(=O)N1CCN(Cc2ccc3onc(N4CCC(=O)NC4=O)c3c2)CC1: 82
- C[C@@H]1CN(S(C)(=O)=O)CCN1Cc1ccc2onc(N3CCC(=O)NC3=O)c2c1: 82
- CS(=O)(=O)N1[C@@H]2CC[C@H]1CC(Cc1ccc3onc(N4CCC(=O)NC4=O)c3c1)C2 (some centres unmarked): 90
- O=C1CCN(c2noc3ccc(CC4CCN(CC5CCC5)CC4)cc23)C(=O)N1: 92
- CC(C)CN1CCN(Cc2ccc3onc(N4CCC(=O)NC4=O)c3c2)CC1: 89

Tell me the measured Dmax at 25 µM of CC(C)CN1CCN(Cc2ccc3onc(N4CCC(=O)NC4=O)c3c2)C[C@@H]1C , please.
91

Value lookup for Dmax at 25 µM; key = O=C1CCN(c2noc3ccc(CN4CCN(CC5CCOCC5)[C@@H](C(F)F)C4)cc23)C(=O)N1
78

# get_value(readout='Dmax at 25 µM', item= O=C1CCN(c2noc3ccc(CN4CCN(C5CCOCC5)CC4)cc23)C(=O)N1 )
90

* * *

remaining activity at 25 µM overview
- STUDY SYSTEM: WIZ (Homo sapiens, UniProt O95785+Q96SW2)
- Construct: expressed in transfected cells
- PROTOCOL NOTES: Quantification of WIZ protein levels in HiBit tag fusion protein assay (WIZ HiBit assay in 293T cells)
- Format: cell-based
- ASSAY SETUP: HEK-293T, DMSO-normalized, curve-fitted percentage of WIZ-HiBit remaining at 25 uM; read-out: WIZ Amax
Where a name gives a salt, the structure may show the parent alone.
Give the number; % is assumed, so skip it.

Example entries and their recorded answers appear below.
- CC(C)N1CCN(Cc2ccc3onc(N4CCC(=O)NC4=O)c3c2)CC1: 8
- CC(C)S(=O)(=O)N1CCC(Cc2ccc3onc(N4CCC(=O)NC4=O)c3c2)CC1: 10
- CCN1CCN(Cc2ccc3onc(N4CCC(=O)NC4=O)c3c2)[C@H](C)C1: 14
- C[C@@H]1CN(S(C)(=O)=O)CCN1Cc1ccc2onc(N3CCC(=O)NC3=O)c2c1: 18
- O=C1CCN(c2noc3ccc(CC4CCNCC4)cc23)C(=O)N1 [Example 1b, hydrochloride]: 12
- O=C1CCN(c2noc3ccc(CC4CCN(CC5CCC(F)(F)CC5)CC4)cc23)C(=O)N1: 8

Below: the item to evaluate.
What value of measured remaining activity at 25 µM is listed for C[C@@H]1CN(C2CCC2)CCN1Cc1ccc2onc(N3CCC(=O)NC3=O)c2c1 ?
18
